assay: Cytotoxicity against Sprague-Dawley rat cardiac fibroblast incubated for 24 hrs by MTT assay; type: toxicity, cell-based, Fibroblast of cardiac tissue; details: cardiac fibroblasts
readout: IC50 at 24 h (µM)

compound_string=COc1cc(-c2nc(SCc3ccc(Cl)cc3)nc(Sc3nnnn3C)c2C#N)cc(OC)c1OC readout="IC50 at 24 h" observed_measurement=27.3
